- ASSAY DETAILS: Evaluation of conversion rate to active form in buffer solution (Experimental Example 1)
- Assay type: physicochemical
- EXPERIMENTAL CONTEXT: pH6.0, 0 hr, 37° C., 25 umol/L in buffer solution
- Description: For Examples 1 to 16 and Comparative Examples 1 to 14, the attrition rate of the test compound and the conversion rate of the test compound to Alvocidib in a buffer solution were calculated by the following method. Examples 1 to 16 and Comparative Examples 1 to 14 were each left in buffer solutions adjusted to pH 5.0, 5.5, 6.0, 6.5, 7.0 and 7.4, respectively, at a concentration of 25 umol/L at 37° C. […]
Counter-ions that a name gives are not always drawn.
The entries below come with measured Residual rate values attached.
Provide the reading as a plain figure in %.

CCN(CCC1CCCCN1)C(=O)Oc1cc(O)c2c(=O)cc(-c3ccccc3Cl)oc2c1[C@H]1CCN(C)C[C@H]1O (stereo partly shown) = 85.3

stdin: Answer with reported Residual rate of CN1CC[C@H](c2c(OC(=O)N(CCC(F)(F)F)CC3CCCCN3)cc(O)c3c(=O)cc(-c4ccccc4Cl)oc23)[C@H](O)C1 (stereo partly shown)
stdout: 81.3

stdin: Identify Residual rate associated with the molecule CCNC(=O)Oc1cc(O)c2c(=O)cc(-c3ccccc3Cl)oc2c1[C@H]1CCN(C)C[C@H]1O [Comparative Example 1, reference compound]
stdout: 89.9

stdin: Given the molecule CCN(CC1CCCCN1)C(=O)Oc1cc(O)c2c(=O)cc(-c3ccccc3Cl)oc2c1[C@H]1CCN(C)C[C@H]1O (stereo partly shown) [Example 7, dihydrochloride] , write its reported Residual rate.
stdout: 98.9

stdin: Report Residual rate, nothing else, for this molecule: CC(C)N(CC1CCCCN1)C(=O)Oc1cc(O)c2c(=O)cc(-c3ccccc3Cl)oc2c1[C@H]1CCN(C)C[C@H]1O (stereo partly shown)
stdout: 90.7

###

- ASSAY DETAILS: Evaluation of conversion rate to active form in buffer solution (Experimental Example 1)
- Type: physicochemical
- EXPERIMENTAL CONTEXT: pH6.5, 0 hr, 37° C., 25 umol/L in buffer solution
OUTCOME MEASURE: Residual rate (%)
Kindly provide the numeric value in % only, without the unit symbol.

CCCN(C[C@@H]1CCCCN1)C(=O)Oc1cc(O)c2c(=O)cc(-c3ccccc3Cl)oc2c1[C@H]1CCN(C)C[C@H]1O = 98.4
CCN(CCC1CCCCN1)C(=O)Oc1cc(O)c2c(=O)cc(-c3ccccc3Cl)oc2c1[C@H]1CCN(C)C[C@H]1O (stereo partly shown) = 86.0

stdin: Entry CN1CC[C@H](c2c(OC(=O)N(CCCC(F)(F)F)CC3CCCCN3)cc(O)c3c(=O)cc(-c4ccccc4Cl)oc23)[C@H](O)C1 (stereo partly shown) needs its Residual rate filled in; supply it.
stdout: 52.2

stdin: Using the record for `CCCN(C[C@H]1CCCCN1)C(=O)Oc1cc(O)c2c(=O)cc(-c3ccccc3Cl)oc2c1[C@H]1CCN(C)C[C@H]1O` , state its measured Residual rate.
stdout: 99.4

###

- ASSAY DETAILS: Evaluation of conversion rate to active form in buffer solution (Experimental Example 1)
- Format: physicochemical
- EXPERIMENTAL CONTEXT: pH7.0, 1 hr, 37° C., 25 umol/L in buffer solution
OUTCOME MEASURE: Production rate of Alvocidib (%)
Reply numerically in %, unit not repeated.

CCN(C[C@@H]1CCCCN1)C(=O)Oc1cc(O)c2c(=O)cc(-c3ccccc3Cl)oc2c1[C@H]1CCN(C)C[C@H]1O [Example 1, ditrifluoroacetate] = 41.1
CCCN(C[C@H]1CCCCN1)C(=O)Oc1cc(O)c2c(=O)cc(-c3ccccc3Cl)oc2c1[C@H]1CCN(C)C[C@H]1O = 44.4
COCCN(CC1CCCCN1)C(=O)Oc1cc(O)c2c(=O)cc(-c3ccccc3Cl)oc2c1[C@H]1CCN(C)C[C@H]1O (some centres unmarked) = 51.2
CN1CC[C@H](c2c(OC(=O)N(CCCC(F)(F)F)CC3CCCCN3)cc(O)c3c(=O)cc(-c4ccccc4Cl)oc23)[C@H](O)C1 (some centres unmarked) = 68.0
CN1CC[C@H](c2c(OC(=O)N(CCF)CC3CCCCN3)cc(O)c3c(=O)cc(-c4ccccc4Cl)oc23)[C@H](O)C1 (some centres unmarked) = 62.1

stdin: Supply reported Production rate of Alvocidib belonging to this compound: `CN1CC[C@H](c2c(OC(=O)N(C)C[C@@H]3CCCCN3)cc(O)c3c(=O)cc(-c4ccccc4Cl)oc23)[C@H](O)C1`
stdout: 43.2

stdin: Annotate the compound `CCCN(C[C@@H]1CCCCN1)C(=O)Oc1cc(O)c2c(=O)cc(-c3ccccc3Cl)oc2c1[C@H]1CCN(C)C[C@H]1O` with its measured Production rate of Alvocidib.
stdout: 41.9

###

- ASSAY DETAILS: Evaluation of conversion rate to active form in BALB/c mouse plasma (Experimental Example 3)
- Type: in vitro ADME
- EXPERIMENTAL CONTEXT: BALB/c, mouse, 120 min, 0.2 μmol/L
- Description: For Example 1, Example 2, Example 3, Example 4, Example 5, Example 6, Comparative Example 3, Comparative Example 4, Comparative Example 6, Comparative Example 7, Comparative Example 8, Comparative Example 9, Comparative Example 10 and Comparative Example 12, the attrition rate of the test compound and the conversion rate of the test compound to Alvocidib in human plasma and BALB/c mouse plasma were calculated by the following method. […]
Entries and their Production rate (%) of Alvocidib values follow.
Dear colleague, please return just the value in %, with no unit written.

CN1CC[C@H](c2c(O)cc(O)c3c(=O)cc(-c4ccccc4Cl)oc23)[C@H](OC(=O)c2ccccc2F)C1 = 27
CC(C)[C@H](N)C(=O)O[C@@H]1CN(C)CC[C@@H]1c1c(O)cc(O)c2c(=O)cc(-c3ccccc3Cl)oc12 [Comparative Example 10, reference compound] = 6
CN1CC[C@H](c2c(O)cc(O)c3c(=O)cc(-c4ccccc4Cl)oc23)[C@H](OC(=O)CN)C1 [Comparative Example 8, reference compound] = 107
CCC(=O)O[C@@H]1CN(C)CC[C@@H]1c1c(O)cc(O)c2c(=O)cc(-c3ccccc3Cl)oc12 = 66

From here, focus on the item given below.
stdin: For the compound CCOC(=O)O[C@@H]1CN(C)CC[C@@H]1c1c(O)cc(O)c2c(=O)cc(-c3ccccc3Cl)oc12 [Comparative Example 3, reference compound] , give its measured Production rate (%) of Alvocidib value.
stdout: 13

###

- ASSAY DETAILS: Evaluation of conversion rate to active form in buffer solution (Experimental Example 1)
- Assay type: physicochemical
- EXPERIMENTAL CONTEXT: pH6.0, 0.5 hr, 37° C., 25 umol/L in buffer solution
Rule for this label: yes (1) means Production rate of Alvocidib is less than 4%; no (0) means Production rate of Alvocidib is at least 4%.

Use these answered entries as a reference point.
CN1CC[C@H](c2c(OC(=O)N(CCCC(F)(F)F)CC3CCCCN3)cc(O)c3c(=O)cc(-c4ccccc4Cl)oc23)[C@H](O)C1 (some centres unmarked) = no (0)
CN1CC[C@H](c2c(OC(=O)N(CCC(F)(F)F)CC3CCCCN3)cc(O)c3c(=O)cc(-c4ccccc4Cl)oc23)[C@H](O)C1 (some centres unmarked) = no (0)
COCCN(CC1CCCCN1)C(=O)Oc1cc(O)c2c(=O)cc(-c3ccccc3Cl)oc2c1[C@H]1CCN(C)C[C@H]1O (some centres unmarked) = no (0)
CCN(C[C@@H]1CCCCN1)C(=O)Oc1cc(O)c2c(=O)cc(-c3ccccc3Cl)oc2c1[C@H]1CCN(C)C[C@H]1O [Example 1, ditrifluoroacetate] = yes (1)
CN1CC[C@H](c2c(OC(=O)N(Cc3ccccc3)CC3CCCCN3)cc(O)c3c(=O)cc(-c4ccccc4Cl)oc23)[C@H](O)C1 (some centres unmarked) = no (0)

stdin: Regarding CCNC(=O)Oc1cc(O)c2c(=O)cc(-c3ccccc3Cl)oc2c1[C@H]1CCN(C)C[C@H]1O [Comparative Example 1, reference compound] , kindly confirm whether its Production rate of Alvocidib is beneath 4%.
stdout: no (0)

stdin: Record CN1CC[C@H](c2c(OC(=O)N(CCF)CC3CCCCN3)cc(O)c3c(=O)cc(-c4ccccc4Cl)oc23)[C@H](O)C1 (some centres unmarked) : is its Production rate of Alvocidib strictly below 4%?
stdout: no (0)

stdin: Threshold test, Production rate of Alvocidib < 4%: `CN1CC[C@H](c2c(OC(=O)N(C)C[C@H]3CCCCN3)cc(O)c3c(=O)cc(-c4ccccc4Cl)oc23)[C@H](O)C1`
stdout: yes (1)

stdin: Threshold test, Production rate of Alvocidib < 4%: CCN(CCC1CCCCN1)C(=O)Oc1cc(O)c2c(=O)cc(-c3ccccc3Cl)oc2c1[C@H]1CCN(C)C[C@H]1O (some centres unmarked)
stdout: yes (1)

stdin: Here's an entry: `CN1CC[C@H](c2c(OC(=O)N(C)C[C@@H]3CCCCN3)cc(O)c3c(=O)cc(-c4ccccc4Cl)oc23)[C@H](O)C1` . Is its Production rate of Alvocidib below 4%?
stdout: no (0)

stdin: Item `CCN(C[C@H]1CCCCN1)C(=O)Oc1cc(O)c2c(=O)cc(-c3ccccc3Cl)oc2c1[C@H]1CCN(C)C[C@H]1O` : Production rate of Alvocidib beneath 4%, strictly?
stdout: yes (1)

stdin: In plain terms, does CN1CC[C@H](c2c(OC(=O)N(C)CC3CCCCN3)cc(O)c3c(=O)cc(-c4ccccc4Cl)oc23)[C@H](O)C1 (some centres unmarked) come in under 4% for Production rate of Alvocidib?
stdout: no (0)

stdin: Quick check: does CC(C)N(CC1CCCCN1)C(=O)Oc1cc(O)c2c(=O)cc(-c3ccccc3Cl)oc2c1[C@H]1CCN(C)C[C@H]1O (some centres unmarked) have Production rate of Alvocidib under 4%?
stdout: no (0)

stdin: Quick check: does `CCCN(C[C@@H]1CCCCN1)C(=O)Oc1cc(O)c2c(=O)cc(-c3ccccc3Cl)oc2c1[C@H]1CCN(C)C[C@H]1O` have Production rate of Alvocidib under 4%?
stdout: yes (1)

stdin: Hi there! Is Production rate of Alvocidib for CCCN(CC1CCCCN1)C(=O)Oc1cc(O)c2c(=O)cc(-c3ccccc3Cl)oc2c1[C@H]1CCN(C)C[C@H]1O (some centres unmarked) below 4%, do you know?
stdout: no (0)
